# SYSTEM_NAME: nhr-46 (C45E5.6) (Caenorhabditis elegans) (UniProt Q95QR2)
# Sequence: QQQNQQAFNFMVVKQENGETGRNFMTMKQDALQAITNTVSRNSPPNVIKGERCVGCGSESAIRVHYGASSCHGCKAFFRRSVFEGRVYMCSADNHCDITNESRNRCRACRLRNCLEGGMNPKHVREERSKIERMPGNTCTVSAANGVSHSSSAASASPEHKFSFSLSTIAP
Items are presented alongside their recorded binding signal (PBM E-score (-0.5 to 0.5)).
QUANTITY_KIND: binding signal (PBM E-score (-0.5 to 0.5))

> print(dat)
                              chain.sequence  result
 1  AGAGATCA (double strand) [8-mer AGAGATCA]   0.478
 2  CAAGATCA (double strand) [8-mer CAAGATCA]   0.463
 3  GAGATCAA (double strand) [8-mer GAGATCAA]   0.495
 4  AGATCAAA (double strand) [8-mer AGATCAAA]   0.473
 5  AGATCAAT (double strand) [8-mer AGATCAAT]    0.49
 6  GAAGATCA (double strand) [8-mer GAAGATCA]   0.466
 7  AAGATCAT (double strand) [8-mer AAGATCAT]   0.476
 8  AGATCAAG (double strand) [8-mer AGATCAAG]   0.466
 9  AAGATCAA (double strand) [8-mer AAGATCAA]   0.496
10  AAAGATCA (double strand) [8-mer AAAGATCA]    0.49
11  AGATCAAC (double strand) [8-mer AGATCAAC]   0.483
12  CGAGATCA (double strand) [8-mer CGAGATCA]    0.46
13  ATGATCTC (double strand) [8-mer ATGATCTC]    0.46
14  TAAGATCA (double strand) [8-mer TAAGATCA]   0.474
15  TAGATCAA (double strand) [8-mer TAGATCAA]   0.465

###

# SYSTEM_NAME: tbx-38 (C24H11.3) (Caenorhabditis elegans) (UniProt Q9XVD5)
# Sequence: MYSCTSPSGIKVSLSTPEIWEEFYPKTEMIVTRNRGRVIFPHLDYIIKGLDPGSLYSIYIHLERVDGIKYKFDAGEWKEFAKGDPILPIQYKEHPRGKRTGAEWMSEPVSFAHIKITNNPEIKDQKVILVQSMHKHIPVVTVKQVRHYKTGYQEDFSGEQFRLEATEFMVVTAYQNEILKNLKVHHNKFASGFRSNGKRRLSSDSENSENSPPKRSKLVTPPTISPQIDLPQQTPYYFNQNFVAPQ
QUANTITY_KIND: binding signal (PBM E-score (-0.5 to 0.5))

> print(dat)
                              chain.sequence                               system.name  result
 1  GGGTGTGA (double strand) [8-mer GGGTGTGA]  tbx-38 (C24H11.3) (Caenorhabditis elegans) (UniProt Q9XVD5)   0.487
 2  AGGTGTGA (double strand) [8-mer AGGTGTGA]  tbx-38 (C24H11.3) (Caenorhabditis elegans) (UniProt Q9XVD5)   0.498
 3  GAGTGTGA (double strand) [8-mer GAGTGTGA]  tbx-38 (C24H11.3) (Caenorhabditis elegans) (UniProt Q9XVD5)   0.484
 4  GGGTGCGA (double strand) [8-mer GGGTGCGA]  tbx-38 (C24H11.3) (Caenorhabditis elegans) (UniProt Q9XVD5)   0.485
 5  ATTCACAC (double strand) [8-mer ATTCACAC]  tbx-38 (C24H11.3) (Caenorhabditis elegans) (UniProt Q9XVD5)   0.494
 6  AGTGTGAA (double strand) [8-mer AGTGTGAA]  tbx-38 (C24H11.3) (Caenorhabditis elegans) (UniProt Q9XVD5)   0.496
 7  AGGTGCGA (double strand) [8-mer AGGTGCGA]  tbx-38 (C24H11.3) (Caenorhabditis elegans) (UniProt Q9XVD5)    0.49
 8  AAGTGTGA (double strand) [8-mer AAGTGTGA]  tbx-38 (C24H11.3) (Caenorhabditis elegans) (UniProt Q9XVD5)   0.494
 9  GTGTGAAA (double strand) [8-mer GTGTGAAA]  tbx-38 (C24H11.3) (Caenorhabditis elegans) (UniProt Q9XVD5)   0.483
10  GGTGTGAA (double strand) [8-mer GGTGTGAA]  tbx-38 (C24H11.3) (Caenorhabditis elegans) (UniProt Q9XVD5)   0.497
11  AGGTGTTA (double strand) [8-mer AGGTGTTA]  tbx-38 (C24H11.3) (Caenorhabditis elegans) (UniProt Q9XVD5)   0.494

###

Items are presented alongside their recorded binding signal (PBM E-score (-0.5 to 0.5)).
# SYSTEM_NAME: klf-3 (F54H5.4) (Caenorhabditis elegans) (UniProt Q65ZG6)
# Sequence (Q65ZG6 180-315): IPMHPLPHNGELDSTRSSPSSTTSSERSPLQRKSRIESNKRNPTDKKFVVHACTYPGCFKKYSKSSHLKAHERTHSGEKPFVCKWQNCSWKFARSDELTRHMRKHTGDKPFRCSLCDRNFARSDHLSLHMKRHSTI
QUANTITY_KIND: binding signal (PBM E-score (-0.5 to 0.5))

> print(dat)
                              chain.sequence  numeric.value
 1  AAGGGCGT (double strand) [8-mer AAGGGCGT]          0.487
 2  CTACGCCC (double strand) [8-mer CTACGCCC]           0.48
 3  CCACACCC (double strand) [8-mer CCACACCC]          0.486
 4  ACGCCCAT (double strand) [8-mer ACGCCCAT]           0.49
 5  ACGCCCAC (double strand) [8-mer ACGCCCAC]           0.48
 6  CCCGCCCA (double strand) [8-mer CCCGCCCA]          0.485
 7  AGGGCGTA (double strand) [8-mer AGGGCGTA]          0.484
 8  CAACGCCC (double strand) [8-mer CAACGCCC]          0.482
 9  AACGCCCA (double strand) [8-mer AACGCCCA]          0.483
10  CCCCGCCC (double strand) [8-mer CCCCGCCC]          0.489
11  AGGGCGTG (double strand) [8-mer AGGGCGTG]          0.491
12  CCACGCCC (double strand) [8-mer CCACGCCC]          0.494
13  CACGCCCA (double strand) [8-mer CACGCCCA]           0.49
14  ATACGCCC (double strand) [8-mer ATACGCCC]           0.48
15  TACGCCCA (double strand) [8-mer TACGCCCA]          0.486

###

Recorded below: binding signal (PBM E-score (-0.5 to 0.5)), system nhr-34 (F58G6.5) (Caenorhabditis elegans) (UniProt Q21006).
QUANTITY_KIND: binding signal (PBM E-score (-0.5 to 0.5))

> print(dat)
                             chain.sequence  numeric.value
1  AGATCAAT (double strand) [8-mer AGATCAAT]          0.486
2  AAGATCAA (double strand) [8-mer AAGATCAA]          0.494
3  AAAGATCA (double strand) [8-mer AAAGATCA]          0.485
4  GAGATCAA (double strand) [8-mer GAGATCAA]          0.491
5  AGATCAAC (double strand) [8-mer AGATCAAC]          0.478
6  AGAGATCA (double strand) [8-mer AGAGATCA]          0.488

###

# SYSTEM_NAME: F52B5.7 (F52B5.7) (Caenorhabditis elegans) (UniProt Q7YWZ7)
# Sequence: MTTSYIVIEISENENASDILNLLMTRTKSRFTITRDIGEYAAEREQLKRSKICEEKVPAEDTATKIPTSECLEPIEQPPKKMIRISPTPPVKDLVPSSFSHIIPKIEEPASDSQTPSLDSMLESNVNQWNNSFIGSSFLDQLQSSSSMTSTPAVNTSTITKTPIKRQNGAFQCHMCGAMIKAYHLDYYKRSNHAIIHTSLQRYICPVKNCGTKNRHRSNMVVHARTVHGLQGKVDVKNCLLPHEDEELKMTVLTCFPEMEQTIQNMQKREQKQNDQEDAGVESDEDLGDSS
QUANTITY_KIND: binding signal (PBM E-score (-0.5 to 0.5))

> print(dat)
                              chain.sequence  numeric.value
 1  CCCCATAA (double strand) [8-mer CCCCATAA]          0.495
 2  TACCCATA (double strand) [8-mer TACCCATA]          0.485
 3  CCCCATGA (double strand) [8-mer CCCCATGA]          0.495
 4  CCCCATAG (double strand) [8-mer CCCCATAG]          0.492
 5  ACCCCATG (double strand) [8-mer ACCCCATG]          0.486
 6  ACCCCATA (double strand) [8-mer ACCCCATA]          0.496
 7  GTACCATA (double strand) [8-mer GTACCATA]          0.487
 8  GCCCCATA (double strand) [8-mer GCCCCATA]          0.487
 9  CCCATGGG (double strand) [8-mer CCCATGGG]          0.485
10  CCATGGGG (double strand) [8-mer CCATGGGG]          0.482
11  CCCCCATA (double strand) [8-mer CCCCCATA]          0.485
